This collection of values is drawn from patent US8207172B2.

system: BT474 (human breast carcinoma); assay: In vitro tumor cell proliferation assay (Cell Titer-Glo luminescent cell viability), BT474; format: cell-based; details: BT-474, 72 h, BT474 cells, 72 hours of drug exposure, ATP luminescence readout, read-out: IC50, anti-proliferative activity (inhibition of cell proliferation)
pIC50: −log10 of the molar value. Where a name gives a salt, the structure may show the parent alone.
Measured pIC50, listed per entry for reference.
measure: pIC50

[[record]]
compound = "NC[C@@H](O)Cn1ncc2c1CCc1c-2sc2ncnc(Nc3ccc(OCc4cccc(F)c4)c(Cl)c3)c12 [Example 162, trifluoroacetate]"
assay_result = "≥ 5.30"

[[record]]
compound = "CN1CCC(n2cc3c(n2)CCc2c-3sc3ncnc(Nc4ccc(OCc5cccc(F)c5)c(Cl)c4)c23)CC1"
assay_result = "≥ 6.00"

[[record]]
compound = "CCC(CC)CN1CCC(CCn2cc3c(n2)CCc2c-3sc3ncnc(Nc4ccc(OCc5cccc(F)c5)c(Cl)c4)c23)CC1"
assay_result = "≥ 6.00"

[[record]]
compound = "CCN1CCN(CCn2cc3c(n2)CCc2c-3sc3ncnc(Nc4ccc(OCc5cccc(F)c5)c(Cl)c4)c23)CC1"
assay_result = "≥ 6.00"

[[record]]
compound = "Cc1cc(Nc2ncnc3sc4c(c23)CCc2nn(CCN3CCN(C)CC3)cc2-4)ccc1OCc1cccc(F)c1"
assay_result = "≥ 6.00"

[[record]]
compound = "Fc1cccc(COc2ccc(Nc3ncnc4sc5c(c34)CCc3nn(CCC4CCN(Cc6ccco6)CC4)cc3-5)cc2Cl)c1"
assay_result = "≥ 6.00"

[[record]]
compound = "OCC(O)Cn1ncc2c1CCc1c-2sc2ncnc(Nc3ccc(OCc4cccc(F)c4)c(Cl)c3)c12 (centres unmarked)"
assay_result = "≥ 6.00"

[[record]]
compound = "O=C(Cn1ncc2c1CCc1c-2sc2ncnc(Nc3ccc(OCc4cccc(F)c4)c(Cl)c3)c12)NCCO"
assay_result = "≥ 6.00"

[[record]]
compound = "COC[C@@H]1CCCN1C[C@@H](O)Cn1cc2c(n1)CCc1c-2sc2ncnc(Nc3ccc(OCc4cccc(F)c4)c(Cl)c3)c12"
assay_result = "≥ 6.00"

[[record]]
compound = "Cc1cccc(COc2ccc(Nc3ncnc4sc5c(c34)CCc3nn(CCN4CCOCC4)cc3-5)cc2Cl)n1"
assay_result = "≥ 5.30"

[[record]]
compound = "CC(C)(C)OC(=O)N1CCN(CCn2cc3c(n2)CCc2c-3sc3ncnc(Nc4ccc(OCc5cccc(F)c5)c(Cl)c4)c23)CC1"
assay_result = "≥ 4.30"

[[record]]
compound = "CC[N+]1(CC)CCC(n2cc3c(n2)CCc2c-3sc3ncnc(Nc4ccc(OCc5cccc(F)c5)c(Cl)c4)c23)CC1 [Example 226, trifluoroacetate]"
assay_result = "≥ 6.00"

[[record]]
compound = "CN1CCN(CCn2cc3c(n2)CCc2c-3sc3ncnc(Nc4ccc(F)c(Cl)c4)c23)CC1"
assay_result = "≥ 6.00"

[[record]]
compound = "Fc1cccc(COc2ccc(Nc3ncnc4sc5c(c34)CCc3c-5cnn3CCN3CCCC3)cc2Cl)c1"
assay_result = "≥ 6.00"


---

test system: BT474 (human breast carcinoma); experiment: In vitro tumor cell proliferation assay (Cell Titer-Glo luminescent cell viability), BT474; type: cell-based; conditions: BT-474, 72 h, BT474 cells, 72 hours of drug exposure, ATP luminescence readout, read-out: IC50, anti-proliferative activity (inhibition of cell proliferation)
Where a name gives a salt, the structure may show the parent alone.
measure: IC50

[[record]]
molecule = "CN(C)[C@@H]1CCN(CC(=O)N2CCC(n3cc4c(n3)CCc3c-4sc4ncnc(Nc5ccc(OCc6cccc(F)c6)c(Cl)c5)c34)CC2)C1"
assay_result = "≤ 1000 nM"

[[record]]
molecule = "CCN(CC)CC(=O)N1CCC(Cn2cc3c(n2)CCc2c-3sc3ncnc(Nc4ccc(OCc5cccc(F)c5)c(Cl)c4)c23)CC1 [Example 242, trifluoroacetate]"
assay_result = "≤ 1000 nM"

[[record]]
molecule = "OCCn1ncc2c1CCc1c-2sc2ncnc(Nc3ccc(OCc4ccccn4)c(Cl)c3)c12"
assay_result = "≤ 1000 nM"

[[record]]
molecule = "O=C(Cn1cc2c(n1)CCc1c-2sc2ncnc(Nc3ccc(OCc4cccc(F)c4)c(Cl)c3)c12)N(CCO)CCO"
assay_result = "≤ 1000 nM"

[[record]]
molecule = "CN1CCN(CCn2cc3c(n2)CCc2c-3sc3ncnc(Nc4ccc(O)c(Cl)c4)c23)CC1"
assay_result = "≤ 5000 nM"

[[record]]
molecule = "Fc1ccc(Nc2ncnc3sc4c(c23)CCc2nn(CCBr)cc2-4)cc1Cl"
assay_result = "≤ 5000 nM"

[[record]]
molecule = "NCC(=O)OCCn1cc2c(n1)CCc1c-2sc2ncnc(Nc3ccc(OCc4cccc(F)c4)c(Cl)c3)c12"
assay_result = "≤ 1000 nM"


---

Each entry below lists one item and its recorded pIC50 value.
tested on: BT474 (human breast carcinoma); experiment: In vitro tumor cell proliferation assay (Cell Titer-Glo luminescent cell viability), BT474; type: cell-based; conditions: BT-474, 72 h, BT474 cells, 72 hours of drug exposure, ATP luminescence readout, read-out: IC50, anti-proliferative activity (inhibition of cell proliferation)
pIC50: −log10 of the molar value.
measure: pIC50

[[record]]
substance_smiles = "Cc1ccc(Nc2ncnc3sc4c(c23)CCc2nn(CCN3CCN(C)CC3)cc2-4)cc1O"
system_under_test = "BT474 (human breast carcinoma)"
measure = "pIC50"
assay_result = "≥ 5.30"

[[record]]
substance_smiles = "CN(C)C(=O)Cn1cc2c(n1)CCc1c-2sc2ncnc(Nc3ccc(OCc4cccc(F)c4)c(Cl)c3)c12"
system_under_test = "BT474 (human breast carcinoma)"
measure = "pIC50"
assay_result = "≥ 6.00"

[[record]]
substance_smiles = "CN1CCN(CCn2cc3c(n2)CCc2c-3sc3ncnc(Nc4ccc(OC(F)(F)F)c(Cl)c4)c23)CC1"
system_under_test = "BT474 (human breast carcinoma)"
measure = "pIC50"
assay_result = "≥ 6.00"


---

system: BT474 (human breast carcinoma); assay: In vitro tumor cell proliferation assay (Cell Titer-Glo luminescent cell viability), BT474; format: cell-based; details: BT-474, 72 h, BT474 cells, 72 hours of drug exposure, ATP luminescence readout, read-out: IC50, anti-proliferative activity (inhibition of cell proliferation)
pIC50: −log10 of the molar value. Counter-ions that a name gives are not always drawn.
measure: pIC50

[[record]]
compound = "CN1CCN(C(=O)Cn2cc3c(n2)CCc2c-3sc3ncnc(Nc4ccc(OCc5cccc(F)c5)c(Cl)c4)c23)CC1 [Example 183]"
measure = "pIC50"
assay_result = "≥ 6.00"

[[record]]
compound = "CN1CCN(CCn2cc3c(n2)CCc2c-3sc3ncnc(Nc4ccc(Cl)c(Cl)c4)c23)CC1 [Example 45]"
measure = "pIC50"
assay_result = "≥ 6.00"

[[record]]
compound = "O=C(Cn1ncc2c1CCc1c-2sc2ncnc(Nc3ccc(OCc4cccc(F)c4)c(Cl)c3)c12)N(CCO)CCO [Example 212]"
measure = "pIC50"
assay_result = "≥ 6.00"

[[record]]
compound = "OCCNCCn1ncc2c1CCc1c-2sc2ncnc(Nc3ccc4c(cnn4Cc4cccc(F)c4)c3)c12 [Example 300]"
measure = "pIC50"
assay_result = "≥ 6.00"

[[record]]
compound = "O=C(Cn1ncc2c1CCc1c-2sc2ncnc(Nc3ccc(OCc4cccc(F)c4)c(Cl)c3)c12)N1CCNCC1 [Example 201]"
measure = "pIC50"
assay_result = "≥ 6.00"

[[record]]
compound = "Fc1cccc(COc2ccc(Nc3ncnc4sc5c(c34)CCc3nn(C4CCNCC4)cc3-5)cc2Cl)c1 [Example 217]"
measure = "pIC50"
assay_result = "≥ 6.00"

[[record]]
compound = "NS(=O)(=O)OCCn1cc2c(n1)CCc1c-2sc2ncnc(Nc3ccc(OCc4cccc(F)c4)c(Cl)c3)c12 [Example 311]"
measure = "pIC50"
assay_result = "≥ 6.00"

[[record]]
compound = "CCOC(=O)Cn1ncc2c1CCc1c-2sc2ncnc(Nc3ccc(OCc4cccc(F)c4)c(Cl)c3)c12 [Example 190]"
measure = "pIC50"
assay_result = "≥ 6.00"

[[record]]
compound = "CN(C)CCCCNCCn1cc2c(n1)CCc1c-2sc2ncnc(Nc3ccc(F)c(Cl)c3)c12 [Example 17]"
measure = "pIC50"
assay_result = "≥ 5.30"

[[record]]
compound = "CCN1CCN(CCn2cc3c(n2)CCc2c-3sc3ncnc(Nc4ccc(OCc5cccc(C)n5)c(Cl)c4)c23)CC1 [Example 118]"
measure = "pIC50"
assay_result = "≥ 5.30"

[[record]]
compound = "COCCN(CCOC)CCn1ncc2c1CCc1c-2sc2ncnc(Nc3ccc(OCc4cccc(F)c4)c(Cl)c3)c12 [Example 260]"
measure = "pIC50"
assay_result = "≥ 5.30"

[[record]]
compound = "CN(C)C1CCN(CCn2cc3c(n2)CCc2c-3sc3ncnc(Nc4ccc5c(cnn5Cc5cccc(F)c5)c4)c23)C1 (centres unmarked) [Example 282]"
measure = "pIC50"
assay_result = "≥ 6.00"

[[record]]
compound = "O[C@H](CNCCN1CCOCC1)Cn1cc2c(n1)CCc1c-2sc2ncnc(Nc3ccc(OCc4cccc(F)c4)c(Cl)c3)c12 [Example 142]"
measure = "pIC50"
assay_result = "≥ 6.00"

[[record]]
compound = "CC(C)c1nccn1CCn1cc2c(n1)CCc1c-2sc2ncnc(Nc3ccc(F)c(Cl)c3)c12 [Example 42]"
measure = "pIC50"
assay_result = "≥ 5.30"

[[record]]
compound = "CC(C)(C)[Si](C)(C)OCCn1cc2c(n1)CCc1c-2sc2ncnc(Nc3ccc(OCc4ccccn4)c(Cl)c3)c12 [Example 98]"
measure = "pIC50"
assay_result = "≥ 6.00"

[[record]]
compound = "Clc1cc(Nc2ncnc3sc4c(c23)CCc2nn(CCn3ccnc3)cc2-4)ccc1OCc1ccccn1 [Example 104]"
measure = "pIC50"
assay_result = "≥ 6.00"

[[record]]
compound = "CN1CCN(CCn2cc3c(n2)CCc2c-3sc3ncnc(Nc4ccc(OCc5ccc(F)cc5)c(Cl)c4)c23)CC1 [Example 326]"
measure = "pIC50"
assay_result = "≥ 5.30"

[[record]]
compound = "OCCn1ncc2c1CCc1c-2sc2ncnc(Nc3ccc(F)c(Cl)c3)c12 [Example 88]"
measure = "pIC50"
assay_result = "≥ 5.30"

[[record]]
compound = "CNCCn1cc2c(n1)CCc1c-2sc2ncnc(Nc3ccc(OCc4cccc(F)c4)c(Cl)c3)c12 [Example 71]"
measure = "pIC50"
assay_result = "≥ 6.00"

[[record]]
compound = "COCCN1CCN(C[C@@H](O)Cn2cc3c(n2)CCc2c-3sc3ncnc(Nc4ccc(OCc5cccc(F)c5)c(Cl)c4)c23)CC1 [Example 133]"
measure = "pIC50"
assay_result = "≥ 6.00"

[[record]]
compound = "CN1CCN(CCn2ncc3c2CCc2c-3sc3ncnc(Nc4ccc(OCc5ccc(F)cc5)c(Cl)c4)c23)CC1 [Example 322]"
measure = "pIC50"
assay_result = "≥ 6.00"

[[record]]
compound = "CN(C)[C@H]1CCN(C(=O)Cn2cc3c(n2)CCc2c-3sc3ncnc(Nc4ccc(OCc5cccc(F)c5)c(Cl)c4)c23)C1 [Example 177]"
measure = "pIC50"
assay_result = "≥ 6.00"

[[record]]
compound = "CN1CCN(CCn2ncc3c2CCc2c-3sc3ncnc(Nc4ccc(F)c(Cl)c4)c23)CC1 [Example 90, trifluoroacetate]"
measure = "pIC50"
assay_result = "≥ 5.30"

[[record]]
compound = "OCCNCCn1ncc2c1CCc1c-2sc2ncnc(Nc3ccc(F)c(Cl)c3)c12 [Example 96]"
measure = "pIC50"
assay_result = "≥ 6.00"

[[record]]
compound = "O=C(Cn1ncc2c1CCc1c-2sc2ncnc(Nc3ccc(OCc4cccc(F)c4)c(Cl)c3)c12)N1CC[C@@H](O)C1 [Example 206]"
measure = "pIC50"
assay_result = "≥ 6.00"

[[record]]
compound = "COCCN(C)CCCn1ncc2c1CCc1c-2sc2ncnc(Nc3ccc(OCc4cccc(F)c4)c(Cl)c3)c12 [Example 270]"
measure = "pIC50"
assay_result = "≥ 6.00"

[[record]]
compound = "CS(=O)(=O)OCCn1cc2c(n1)CCc1c-2sc2ncnc(Nc3ccc4c(cnn4Cc4ccccc4)c3)c12 [Example 303]"
measure = "pIC50"
assay_result = "≥ 6.00"

[[record]]
compound = "CC(C)(C)OC(=O)N1CCN(CCn2cc3c(n2)CCc2c-3sc3ncnc(Nc4ccc(F)c(Cl)c4)c23)CC1 [Example 27]"
measure = "pIC50"
assay_result = "≥ 5.30"

[[record]]
compound = "CS(=O)(=O)CCNCCn1ncc2c1CCc1c-2sc2ncnc(Nc3ccc(OCc4ccccn4)c(Cl)c3)c12 [Example 114]"
measure = "pIC50"
assay_result = "≥ 6.00"

